system: 786-0; assay: NCI tumour cell line growth inhibition, 48 h
Activity calls are given as the source filed them. Rule as the data show it: active = GI50 up to about 1.1 µM and inactive = higher.
Returns: one label drawn from Yes = active, No = inactive

Completed entries (count: 3):
Molecule: O=S1(=O)OCCOS(=O)(=O)C1Cc1ccccc1
Classification: No
//
Molecule: COC(=O)C(=O)C(C(=O)C(=O)Nc1cc([N+](=O)[O-])ccc1[N+](=O)[O-])c1nc2ccc(C(=O)c3ccccc3)cc2nc1O (configuration not stated)
Classification: No
//
Molecule: O=C(C(=O)N1CC2C=CC1CC2)c1c[nH]c2ccccc12 (configuration not stated)
Classification: No

query: Which outcome was assigned to Cn1c(C(C#N)c2nc(Cl)ncc2Br)nc2ccccc21 (configuration not stated) in this test?
result: No

query: Which outcome was assigned to "COC(=O)[C@@]12CSC[C@]1(C(=O)OC)N[C@@H](c1ccccc1O)C2" in this test?
result: No

query: Which outcome was assigned to CN(C)CCCN1c2ccc(O)cc2Sc2ccc(Cl)cc21 [7-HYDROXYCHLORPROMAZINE] in this test?
result: No

query: Which outcome was assigned to C=C(CCOC)CCC1CCCCC(=C)[C@H]1O (some centres not stated) in this test?
result: No

query: Which outcome was assigned to "CN1CCN(c2ccc3[nH]c(-c4ccc5[nH]c(-c6ccc(N(C)CCCl)cc6)nc5c4)nc3c2)CC1" in this test?
result: Yes

query: Which outcome was assigned to CC(C)(CCCCC(C)(C)NCC1COc2ccccc2O1)NCC1COc2ccccc2O1 (configuration not stated) in this test?
result: No

* * *

system: COLO 205; assay: NCI tumour cell line growth inhibition, 48 h
The source made the active and inactive calls. Rule as the data show it: active = GI50 up to about 1.1 µM and inactive = higher.
Observation Type: GI50

Use the examples below as a reference point.
Molecule: Cc1cccc2c1c(=O)c1c(O)cc3c(c1n2C)C=CC(C)(C)O3
GI50: 33.7 µM (inactive)
--
Molecule: Cc1cc(-c2nc3ccc(F)cc3s2)ccc1NC(=O)C(N)CCCCN (centres undefined)
GI50: 4.51 µM (inactive)
--
Molecule: Cc1cc(CC(=O)NCCO)n(CCO)c(=O)c1
GI50: > 100 µM (inactive)
--
Molecule: CCOC(=O)[C@H](C)OC(=O)[C@@](C)(NC(=O)c1ccccc1C(=O)OC)[C@@H]1NC=C(C(=O)OC)CS1
GI50: > 100 µM (inactive)
--
Molecule: CC(=O)Nc1ccc(C(=O)N2N=C(C)/C(=C\c3c(O)ccc4ccccc34)C2=O)cc1
GI50: > 100 µM (inactive)
--
Molecule: COc1cc(C(c2ccccc2)N2C(=O)CC[C@H]2C(=O)O)cc(OC)c1OC (some centres undefined)
GI50: > 100 µM (inactive)

So, Cc1cn(C2CC(O)C(CO)C2C)c(=O)[nH]c1=O (centres undefined) ? Its GI50 was > 100 µM (inactive)

So, "CN(C)CCn1c(=O)c2ccc(NCCNCCO)c3c(=O)c4cc(O)ccc4n(c1=O)c23" ? Its GI50 was 0.634 µM (active)

So, "CC(=O)OC/C=C(/C=C/CNC1CCCCC1)OC(C)=O" ? Its GI50 was 13.9 µM (inactive)

* * *

tested on: DU-145; test: NCI tumour cell line growth inhibition, 48 h
Active and inactive are the calls of the source. Rule as the data show it: active = GI50 up to about 1.1 µM and inactive = higher.
Recorded GI50 for the following molecules

Use the examples below as a reference point.
Chemical Structure: Nn1c(CCCCCCCCc2nnc(COc3c(O)ccc4ccccc34)n2N)nnc1COc1c(O)ccc2ccccc12
Observation Type: GI50
Test Result: > 100 µM (inactive)

Chemical Structure: COC(=O)c1ccccc1/C=C1\Cc2cc3c(cc2C1=O)CCC3
Observation Type: GI50
Test Result: > 100 µM (inactive)

Chemical Structure: Cc1nnc2sc(-c3ccc(N)cc3)nn12
Observation Type: GI50
Test Result: > 100 µM (inactive)

So, "O=[N+]([O-])c1cc(/N=N/c2c(O)ccc3cc(S(=O)(=O)O)ccc23)c(O)c([N+](=O)[O-])c1" ? Its GI50 was > 100 µM (inactive)

So, "CC1(C)N=C(N)N=C(N)N1c1ccc(OCC(=O)Nc2cccc(S(=O)(=O)F)c2)c(Cl)c1" ? Its GI50 was > 25.1 µM (inactive)

* * *

system: SNB-78; experiment: NCI tumour cell line growth inhibition, 48 h
Active and inactive are the calls of the source. No stated cut-off is given here; in the data, active = GI50 up to about 1.1 µM and inactive = higher.
Returns: one label drawn from active, inactive

Completed entries (count: 3):
Molecule: CC1=C(N2CC2)C(=O)C(C)=C(N2CC2)C1=O
Classification: active
//
Molecule: O=C1CCCC/C(=C/c2ccccc2)N1
Classification: inactive
//
Molecule: Cn1c(=O)nc2n(-c3ccc(F)c(F)c3)c3ccccc3nc-2c1=O
Classification: inactive

query: Which outcome was assigned to CCOP(=O)(OCC)C1C(=O)O[C@H]2CCCC[C@@H]12 (some centres not stated) in this test?
result: inactive

query: Which outcome was assigned to "COc1ccc(OC)c(NC(=O)CCC/C(CC(=O)c2ccc(O)c(OC)c2)=N\Nc2ccc([N+](=O)[O-])cc2)c1" in this test?
result: inactive

query: Which outcome was assigned to COC1=C2CC(C)CC(OC)C(O)C(C)/C=C(\C)C(OC(N)=O)C(OC)/C=C\C=C(/C)C(=O)NC(=C(/C=N/C(C)(C)C)C1=O)C2=O (configuration not stated) in this test?
result: inactive

query: Which outcome was assigned to CC1=CC(N2C(=O)C(C)=CC2O)NC1=O (configuration not stated) in this test?
result: inactive

query: Which outcome was assigned to "CCN(CC)CCn1ccc(=O)c2cc3c(=O)ccn(CCN(CC)CC)c3c(C)c21" in this test?
result: inactive

query: Which outcome was assigned to COC(C)(C)[C@H](O)C(O)CC(C)[C@@H]1CCC23CC12CCC1[C@@]2(C)CCC(OC(C)=O)C(C)(C)C2CC(OC2OC(COC(C)=O)C(O)C(O)C2O)[C@]13C (some centres not stated) in this test?
result: inactive

query: Which outcome was assigned to "Cc1cc(C)c(C2=NO[C@@H]3C(=O)N(c4ccc(Cc5ccc(N6C(=O)[C@H]7C(c8c(C)cc(C)cc8C)=NO[C@H]7C6=O)cc5)cc4)C(=O)[C@H]23)c(C)c1" in this test?
result: inactive

query: Which outcome was assigned to Cc1ccc2nc(NC(=O)C(=O)C(C(=O)c3ccc4ccccc4c3)C3OC(=O)c4ccccc43)sc2c1 (configuration not stated) in this test?
result: inactive

query: Which outcome was assigned to "CC1(C)O[C@@H](C[C@]2(C#N)C[C@H](CCl)OC(C)(C)O2)C[C@@H](C#N)O1" in this test?
result: inactive

query: Which outcome was assigned to COC(=O)C(=O)C(C(C)=O)C(=O)NCc1ccc(OC)c(OC)c1 (configuration not stated) in this test?
result: inactive

query: Which outcome was assigned to "O=S1(=O)OCCOS(=O)(=O)C1Cc1ccccc1" in this test?
result: inactive

query: Which outcome was assigned to COC(=O)C1CCc2nnc(-c3ccccc3)n21 (configuration not stated) in this test?
result: inactive

query: Which outcome was assigned to CN1c2ccccc2N(C(=O)c2ccc(Cl)cc2)C(CC(=O)O)c2cccn21 (configuration not stated) in this test?
result: inactive

query: Which outcome was assigned to CC(=O)O[C@H]1CC[C@@]2(C)C(=CC[C@@H]3C2CC[C@]2(C)Nc4[nH]ncc4CC32)C1 (some centres not stated) in this test?
result: inactive

* * *

Recorded GI50 for the following compounds
test system: M14; test: NCI tumour cell line growth inhibition, 48 h
The source made the active and inactive calls. Cut-off read from the data, not from the text of the source: active = GI50 up to about 1.1 µM and inactive = higher.

Use the examples below as a reference point.
Compound: CC1(C)COP(=S)(c2ccccn2)O[C@@H]1c1ccccc1 (stereo partly drawn)
GI50: > 100 µM (inactive)
//
Compound: Nc1ccc(Sc2nnc(N)s2)cc1
GI50: > 100 µM (inactive)

// compound COc1cc(C(c2ccccc2)N2C(=O)CC[C@H]2C(=O)O)cc(OC)c1OC (stereo partly drawn) , assay M14, GI50 value: > 100 µM (inactive)

* * *

Recorded GI50 for the following compounds
test system: M19-MEL; assay: NCI tumour cell line growth inhibition, 48 h
Activity calls are given as the source filed them. Cut-off read from the data, not from the text of the source: active = GI50 up to about 1.1 µM and inactive = higher.

So, "CCN(CC)c1ccc(/N=N/c2ccc(-c3nc4cccn(C)c-4n3)cc2)cc1" ? Its GI50 was 5.38 µM (inactive)

So, "Cc1cc(CC(=O)NCCO)n(CCO)c(=O)c1" ? Its GI50 was > 100 µM (inactive)

So, "c1ccc(CCn2cncn2)cc1" ? Its GI50 was > 100 µM (inactive)

So, COc1ccc(OC)c(NC(=O)C(=O)C(C(C)=O)c2nc3ccc(Cl)cc3nc2O)c1 (stereo not drawn) ? Its GI50 was > 50 µM (inactive)

So, COC(=O)C(=O)C(C(=O)C(=O)Nc1cc([N+](=O)[O-])ccc1[N+](=O)[O-])c1nc2ccc(C(=O)c3ccccc3)cc2nc1O (stereo not drawn) ? Its GI50 was 28.4 µM (inactive)

So, COc1nc2c(nc(N)n2C2OCC(O)C(O)C2O)c(=O)n1C (stereo not drawn) ? Its GI50 was > 100 µM (inactive)

So, "Cc1cc2c(C)n(Cc3ccc(Cl)cc3Cl)nc2c(C#N)c1C" ? Its GI50 was 73.8 µM (inactive)

So, "Nc1nc2c(ncn2Cc2ccccc2CCO)c(=O)[nH]1" ? Its GI50 was > 100 µM (inactive)

So, COC1=C2CC(C)CC(OC)C(O)C(C)/C=C(\C)C(OC(N)=O)C(OC)/C=C\C=C(/C)C(=O)NC(=C(/C=N/C(C)(C)C)C1=O)C2=O (stereo not drawn) ? Its GI50 was 4.45 µM (inactive)
